Recorded RP-LC retention time for the following compounds
method-description: gradient 5% acetonitrile 3 min, to 50% in 2 min, to 85% in 15 min, held 3 min, 100 µL/min
condition-context: column: Zorbax Extend-C18 2.1 x 50 mm; eluents: water / acetonitrile, 0.1% formic acid
measured-parameter: RP-LC retention time

compound: CCc1cccc(NC(=O)C2CCN(S(=O)(=O)c3cn(CC)cn3)CC2)c1
meas-value: 794 s

compound: Cc1ccc(NC(=O)N2CCC(n3cnc4ccc(C)cc4c3=O)CC2)c(C)c1
meas-value: 795 s

compound: CN(CC1CCOCC1)C(=O)Nc1ccc(F)c(Cl)c1
meas-value: 797 s

compound: O=C(C1CCN(c2ccncc2)CC1)N1CCN(c2ncccn2)CC1
meas-value: 570 s

compound: COc1ccccc1NC(=O)N1CCCC1c1nncn1-c1ccccc1 (configuration not stated)
meas-value: 711 s

compound: O=C(COc1ccc(F)cc1)N1C[C@@H]2C[C@H]1C[C@@H]2NS(=O)(=O)c1ccccc1
meas-value: 793 s

compound: CN1CCN(C(CNC(=O)Cc2cccc3ccccc23)c2ccsc2)CC1 (configuration not stated)
meas-value: 564 s

compound: Cc1ccc(C)c(NS(=O)(=O)c2cc3c(s2)CCN(C(=O)C2CCC2)C3)c1
meas-value: 859 s

compound: CCc1nccn1Cc1nc(-c2ccccc2F)no1
meas-value: 603 s

compound: CCN1c2ccccc2C(=O)NC12CCN(C(=O)c1cccc(OC)c1)CC2
meas-value: 752 s

compound: CC(C)Cn1cc(CCNS(=O)(=O)c2ccc3c(c2)CCC3)c2cccnc21
meas-value: 1040 s

compound: COc1nc2ccccc2nc1N1CCCC(C(=O)Nc2ccc(Br)c(C)c2C)C1 (configuration not stated)
meas-value: 1260 s

* * *

method-description: gradient 5% acetonitrile 3 min, to 50% in 2 min, to 85% in 15 min, held 3 min, 100 µL/min
condition-context: column: Zorbax Extend-C18 2.1 x 50 mm; eluents: water / acetonitrile, 0.1% formic acid
Lab note: anything with RP-LC retention time below 900 s is marked 1; values at 900 s or higher are marked -1.

smi: O=C(Cn1nc2c(N3CCSCC3)nccn2c1=O)NC1CCCC1
category: 1
--
smi: O=C(CCC1CCCC1)Nc1nc(-c2ccccc2)cs1
category: -1
--
smi: CC(C)NC(=O)CN1CCN(c2cc(C(=O)O)c3cc(NC(=O)c4ccccc4F)ccc3n2)CC1
category: 1
--
smi: COc1ccc(-c2nc3cnccn3c2Nc2cccc(C(=O)NCc3ccco3)c2)cc1
category: 1
--
smi: CC(C)CNC(=O)NCCC1CCN(S(=O)(=O)c2ccc(F)cc2)CC1
category: 1
--
smi: CCc1ccccc1NC(=O)COc1cc(C)nc(N2CCN(c3ccccc3)CC2)n1
category: -1

* * *

method-description: gradient 5% acetonitrile 3 min, to 50% in 2 min, to 85% in 15 min, held 3 min, 100 µL/min
condition-context: column: Zorbax Extend-C18 2.1 x 50 mm; eluents: water / acetonitrile, 0.1% formic acid
Reported RP-LC retention time values follow for various compounds

compound: CCOC(=O)Nc1cccc(C(F)(F)F)c1
RP-LC retention time / s: 890

compound: CCCN1C(=O)c2c(C(=O)NCCCc3ccccc3)ncn2CC1(C)C(=O)NC1CCCC1 (configuration not stated)
RP-LC retention time / s: 867

compound: O=C(c1ccccn1)N1CCN(c2cc(-c3cccs3)[nH]n2)CC1
RP-LC retention time / s: 648

compound: Cc1ccc(CS(=O)(=O)Nc2ccc3c(c2)nc(-c2ccc(C(=O)NC(C)C)cc2)n3C)cc1
RP-LC retention time / s: 702

compound: Cc1ccc(Cn2c(=O)c3sccc3n(Cc3nc(-c4ccc(OC(C)C)cc4)no3)c2=O)cc1
RP-LC retention time / s: 1280

compound: CCN(CC)c1nc2ccsc2c(=O)n1CCC(=O)N1CCN(c2ccccn2)CC1
RP-LC retention time / s: 683

compound: CCn1c(C(=O)NCCc2ccccc2)cc2sc(Cl)cc21
RP-LC retention time / s: 1160

compound: COc1ccccc1NC(=O)NC1CCN(c2ccc(C)c(C)c2)C1=O (configuration not stated)
RP-LC retention time / s: 870

compound: O=C(O)c1cnc(-c2ccc(F)cc2)nc1-c1ccncc1
RP-LC retention time / s: 690

compound: COc1ccc(S(=O)(=O)N(C)CCCC(=O)O)cc1N(C)S(C)(=O)=O
RP-LC retention time / s: 633

compound: CCC(=O)Nc1ccc(-n2cnc(C(=O)NC(C)c3ccc(C)cc3)c2)nc1 (configuration not stated)
RP-LC retention time / s: 781

compound: O=C(NC1CC(=O)N(C2CC2)C1)c1ccc(Cl)s1 (configuration not stated)
RP-LC retention time / s: 639
